src = patent US11439707B2

molar extinction coefficient reference
Test: absorption spectrum (maximum absorption wavelength, molar extinction coefficient)
Assay type: physicochemical

These recorded examples may help you get a feel for the data.
[
  {
    "compound": "COc1c(NC2CCC(C(=O)O)CC2)c2c(=O)cc(OC)c3c4c(OC)cc(=O)c5c(O)c(NC6CCC(C(=O)O)CC6)c6c(c(c1C(C(C)=O)C(C)=C6)c23)c54 (centres unmarked) [HB-14b]",
    "molar extinction coefficient": "27,000 M^−1cm^−1"
  },
  {
    "compound": "COc1c2c3c4c(c(NC5CCCCC5C(=O)O)c(=O)c5c(NC6CCCCC6C(=O)O)cc(OC)c(c6c(OC)cc(O)c(c1=O)c63)c54)C=C(C)C2C(C)=O (centres unmarked) [HB-16c]",
    "molar extinction coefficient": "28,000 M^−1cm^−1"
  }
]

So what does the record say about molar extinction coefficient for COc1c(NCCCC(=O)O)c2c(=O)cc(OC)c3c4c(OC)cc(=O)c5c(O)c(NCCCC(=O)O)c6c(c(c1C(C(C)=O)C(C)=C6)c23)c54 (centres unmarked) ? 28,500 M^−1cm^−1

Return reported molar extinction coefficient; argument: COCCOC(=O)C1CCC(Nc2c(NC3CCC(C(=O)OCCOC)C3)c3c(=O)cc(OC)c4c5c(OC)cc(=O)c6c(O)c(OC)c7c(c(c2C=C(C)C7C(C)=O)c34)c65)C1 (centres unmarked) [HB-19a-PEG1] 30,500 M^−1cm^−1

Returns the measured molar extinction coefficient for the input compound. Input: COCCOCCOCCOCCOCCOCCOC(=O)CCCCCNc1c(O)c2c(=O)cc(OC)c3c4c(OC)cc(=O)c5c(NCCCCCC(=O)OCCOCCOCCOCCOCCOCCOC)c(OC)c6c(c(c1C=C(C)C6)c23)c54 30,500 M^−1cm^−1
